system: Staphylococcus aureus; test: Bactericidal activity against hospital-acquired methicillin-resistant Staphylococcus aureus by broth microdilution method; format: functional
metric: MBC90
Note: state the figure and append the unit.

Worked cases, MBC90 given:
Record CCCCCCCCCC(=O)N[C@@H](Cc1c[nH]c2ccccc12)C(=O)N[C@H](CC(N)=O)C(=O)N[C@@H](CC(=O)O)C(=O)N[C@@H]1C(=O)NCC(=O)N[C@@H](CCCN)C(=O)N[C@@H](CC(=O)O)C(=O)N[C@H](C)C(=O)N[C@@H](CC(=O)O)C(=O)NCC(=O)N[C@H](CO)C(=O)N[C@@H]([C@H](C)CC(=O)O)C(=O)N[C@@H](CC(=O)c2ccccc2N)C(=O)O[C@@H]1C . Reported MBC90: 1 µg/mL

Record Nc1nc(/C(=N/O)C(=O)N[C@@H]2C(=O)N3C(C(=O)O)=C(/C=C4\CCN([C@@H]5CCNC5)C4=O)CS[C@H]23)ns1 [CEFTOBIPROLE] . Reported MBC90: 4 µg/mL

Could you now look at the following compound, please?
Record CN[C@H](CC(C)C)C(=O)N[C@H]1C(=O)N[C@@H](CC(N)=O)C(=O)N[C@H]2C(=O)N[C@H]3C(=O)N[C@H](C(=O)N[C@H](C(=O)O)c4cc(O)cc(O)c4-c4cc3ccc4O)[C@H](O)c3ccc(c(Cl)c3)Oc3cc2cc(c3O[C@@H]2O[C@H](CO)[C@@H](O)[C@H](O)[C@H]2O[C@H]2C[C@](C)(N)[C@H](O)[C@H](C)O2)Oc2ccc(cc2Cl)[C@H]1O [VANCOMYCIN] . Reported MBC90: 2 µg/mL

Data provenance is ChEMBL document CHEMBL1275473.
